Recorded Decrease in blood pressure for the following compounds
- Test system: Rattus norvegicus
- experiment-description: Antihypertensive activity as percentage fall in systolic blood pressure in spontaneously hypertensive rats after a period of 1 hr for a dose of 50 mg/kg
- Assay type: functional, Artery
measurement-type: Decrease in blood pressure (%)

- compound: "CN1CC2(CCN(CC(O)C3COc4ccccc4O3)CC2)OC1=O (stereo not given)"
  measurement-type: "Decrease in blood pressure"
  unit-name: "%"
  value-reported: 28
- compound: "CCCN1CC2(CCN(CCc3c[nH]c4ccccc34)CC2)OC1=O"
  measurement-type: "Decrease in blood pressure"
  unit-name: "%"
  value-reported: 14
- compound: "O=C(NC1CCN(CCc2c[nH]c3ccccc23)CC1)c1ccccc1"
  measurement-type: "Decrease in blood pressure"
  unit-name: "%"
  value-reported: 33
- compound: "CCC1NC(=O)OC12CCN(CCc1c[nH]c3ccccc13)CC2 (stereo not given)"
  measurement-type: "Decrease in blood pressure"
  unit-name: "%"
  value-reported: 39
- compound: "Cc1ccc(N(CC2=NCCN2)c2cccc(O)c2)cc1"
  measurement-type: "Decrease in blood pressure"
  unit-name: "%"
  value-reported: 37
- compound: "CC(C)N1CC2(CCN(CC(O)C3COc4ccccc4O3)CC2)OC1=O (stereo not given)"
  measurement-type: "Decrease in blood pressure"
  unit-name: "%"
  value-reported: 26
- compound: "COCCN1CC2(CCN(CCc3c[nH]c4ccccc34)CC2)OC1=O"
  measurement-type: "Decrease in blood pressure"
  unit-name: "%"
  value-reported: 21
- compound: "CCC1NC(=O)OC12CCN(CC1COc3ccccc3O1)CC2 (stereo not given)"
  measurement-type: "Decrease in blood pressure"
  unit-name: "%"
  value-reported: 51
- compound: "CCCC1CN(CCc2c[nH]c3ccccc23)CCC12CNC(=O)O2 (stereo not given)"
  measurement-type: "Decrease in blood pressure"
  unit-name: "%"
  value-reported: 21
- compound: "CC(C)C1NC(=O)OC12CCN(CCc1c[nH]c3ccccc13)CC2 (stereo not given)"
  measurement-type: "Decrease in blood pressure"
  unit-name: "%"
  value-reported: 26
- compound: "CCN1CC2(CCN(CC(O)COc3ccccc3OC)CC2)OC1=O (stereo not given)"
  measurement-type: "Decrease in blood pressure"
  unit-name: "%"
  value-reported: 11
- compound: "CCC1NC(=O)OC12CC[N+](C)(CCc1c[nH]c3ccccc13)CC2.[I-] (stereo not given)"
  measurement-type: "Decrease in blood pressure"
  unit-name: "%"
  value-reported: 20
- compound: "O=C1NCC2(CCN(CCc3c[nH]c4ccccc34)CC2)O1"
  measurement-type: "Decrease in blood pressure"
  unit-name: "%"
  value-reported: 16
- compound: "O=C1OC2(CCN(CC(O)C3COc4ccccc4O3)CC2)CN1CCc1ccccc1 (stereo not given)"
  measurement-type: "Decrease in blood pressure"
  unit-name: "%"
  value-reported: 14
- compound: "CCCC1NC(=O)OC12CCN(CCc1c[nH]c3ccccc13)CC2 (stereo not given)"
  measurement-type: "Decrease in blood pressure"
  unit-name: "%"
  value-reported: 36
- compound: "COc1ccccc1OC[C@@H](O)CN1CCC2(CC1)CN(C)C(=O)O2"
  measurement-type: "Decrease in blood pressure"
  unit-name: "%"
  value-reported: 25
- compound: "O=C1OC2(CCN(CC(O)C3COc4ccccc4O3)CC2)CN1c1ccccc1 (stereo not given)"
  measurement-type: "Decrease in blood pressure"
  unit-name: "%"
  value-reported: 16
- compound: "CC1NC(=O)OC12CCN(CCc1c[nH]c3ccccc13)CC2 (stereo not given)"
  measurement-type: "Decrease in blood pressure"
  unit-name: "%"
  value-reported: 18
- compound: "CCC1CN(CCc2c[nH]c3ccccc23)CCC12CNC(=O)O2 (stereo not given)"
  measurement-type: "Decrease in blood pressure"
  unit-name: "%"
  value-reported: 16
- compound: "CC(C)CC1NC(=O)OC12CCN(CCc1c[nH]c3ccccc13)CC2 (stereo not given)"
  measurement-type: "Decrease in blood pressure"
  unit-name: "%"
  value-reported: 27
- compound: "COc1ccccc1OC[C@H](O)CN1CCC2(CC1)CN(C)C(=O)O2"
  measurement-type: "Decrease in blood pressure"
  unit-name: "%"
  value-reported: 10
- compound: "O=C1NCC2(CCN(CC(O)C3COc4ccccc4O3)CC2)O1 (stereo not given)"
  measurement-type: "Decrease in blood pressure"
  unit-name: "%"
  value-reported: 28
- compound: "COc1ccccc1OCC(O)CN1CCC2(CC1)CN(C)C(=O)O2 (stereo not given)"
  measurement-type: "Decrease in blood pressure"
  unit-name: "%"
  value-reported: 15
- compound: "CCN1CC2(CCN(CC(O)C3COc4ccccc4O3)CC2)OC1=O (stereo not given)"
  measurement-type: "Decrease in blood pressure"
  unit-name: "%"
  value-reported: 32
- compound: "CCCCC1NC(=O)OC12CCN(CCc1c[nH]c3ccccc13)CC2 (stereo not given)"
  measurement-type: "Decrease in blood pressure"
  unit-name: "%"
  value-reported: 24
